molecular target: Porcine UGPPase (Sus scrofa); construct: Fresh porcine kidney, 3.6-kg of weight, was homogenized; from tissue; host or cells: porcine kidney; experiment: UGPPase activity measurement (G1P produced, coupled NADH read-out), substrate specificity and UDPG dependence, porcine enzyme; type: biochemical, pig; conditions: 5 mM of corresponding substrate, UDPG = 100%
Sequence (Q865Y9 1-222): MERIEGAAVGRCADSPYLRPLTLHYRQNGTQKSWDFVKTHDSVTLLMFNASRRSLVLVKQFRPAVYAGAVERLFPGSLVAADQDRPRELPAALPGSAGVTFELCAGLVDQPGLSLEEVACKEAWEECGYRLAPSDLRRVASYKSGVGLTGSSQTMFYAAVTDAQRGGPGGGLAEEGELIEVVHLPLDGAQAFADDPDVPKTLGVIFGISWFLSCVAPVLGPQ
Assay Readout: % activity with respect to UDPG

Illustrative cases are given below, each with its answer.
>>> result("Nc1ncnc2c1ncn2[C@@H]1O[C@H](COP(=O)(O)OP(=O)(O)OP(=O)(O)O)[C@@H](O)[C@H]1O")
"bdl"
>>> result("Nc1ncnc2c1ncn2[C@@H]1O[C@H](COP(=O)(O)OP(=O)(O)OC[C@H]2OC(O)[C@H](O)[C@@H]2O)[C@@H](O)[C@H]1O (some centres unmarked)")
"95%"
>>> result("O=[N+]([O-])c1ccc(OP(=O)(O)Oc2ccc([N+](=O)[O-])cc2)cc1")
"bdl"
>>> result("O=c1ccn([C@@H]2O[C@H](COP(=O)(O)OP(=O)(O)OP(=O)(O)O)[C@@H](O)[C@H]2O)c(=O)[nH]1")
"bdl"
>>> result("Nc1nc2c(ncn2[C@@H]2O[C@H](COP(=O)(O)OP(=O)(O)O[C@H]3O[C@H](CO)[C@@H](O)[C@H](O)[C@H]3O)[C@@H](O)[C@H]2O)c(=O)[nH]1")
"~10%"
>>> result("Nc1ncnc2c1ncn2[C@@H]1O[C@H](COP(=O)(O)O)[C@@H](O)[C@H]1O [AMP, adenosine 5′-monophosphate]")
"bdl"

Query string: Record request: % activity with respect to UDPG value, item NC(=O)c1ccc[n+]([C@@H]2O[C@H](COP(=O)([O-])OP(=O)(O)OC[C@H]3O[C@@H](n4cnc5c(N)ncnc54)[C@H](O)[C@@H]3O)[C@@H](O)[C@H]2O)c1
Result string: bdl

Query string: // same read-out, input: Nc1ncnc2c1ncn2[C@@H]1O[C@H](COP(=O)(O)OP(=O)(O)O)[C@@H](O)[C@H]1O
Result string: bdl

Query string: // same read-out, input: O=C(O)[C@H]1O[C@H](OP(=O)(O)OP(=O)(O)OC[C@H]2O[C@@H](n3ccc(=O)[nH]c3=O)[C@H](O)[C@@H]2O)[C@H](O)[C@@H](O)[C@@H]1O
Result string: bdl

Query string: // same read-out, input: O=[N+]([O-])c1ccc(OP(=O)(O)O)cc1
Result string: bdl

Query string: // same read-out, input: Nc1ccn([C@@H]2O[C@H](COP(=O)(O)OP(=O)(O)O[C@H]3O[C@H](CO)[C@@H](O)[C@H](O)[C@H]3O)[C@@H](O)[C@H]2O)c(=O)n1
Result string: 2%

Values were extracted from patent US7338776B2.
